target: chicken Estrogen Receptor (ERa), ESR1 (gene 396099) (UniProt P06212); experiment: ATG_chERa_XSP2: Attagene TRANS-FACTORIAL Multi-Species (XSP2) HepG2 Assay for chicken Estrogen Receptor (ERa) (AID 2283817);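 note: actives raise reporter signal above DMSO so AC50 reflects ER activation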
Sequence (P06212 whole entry, looked up): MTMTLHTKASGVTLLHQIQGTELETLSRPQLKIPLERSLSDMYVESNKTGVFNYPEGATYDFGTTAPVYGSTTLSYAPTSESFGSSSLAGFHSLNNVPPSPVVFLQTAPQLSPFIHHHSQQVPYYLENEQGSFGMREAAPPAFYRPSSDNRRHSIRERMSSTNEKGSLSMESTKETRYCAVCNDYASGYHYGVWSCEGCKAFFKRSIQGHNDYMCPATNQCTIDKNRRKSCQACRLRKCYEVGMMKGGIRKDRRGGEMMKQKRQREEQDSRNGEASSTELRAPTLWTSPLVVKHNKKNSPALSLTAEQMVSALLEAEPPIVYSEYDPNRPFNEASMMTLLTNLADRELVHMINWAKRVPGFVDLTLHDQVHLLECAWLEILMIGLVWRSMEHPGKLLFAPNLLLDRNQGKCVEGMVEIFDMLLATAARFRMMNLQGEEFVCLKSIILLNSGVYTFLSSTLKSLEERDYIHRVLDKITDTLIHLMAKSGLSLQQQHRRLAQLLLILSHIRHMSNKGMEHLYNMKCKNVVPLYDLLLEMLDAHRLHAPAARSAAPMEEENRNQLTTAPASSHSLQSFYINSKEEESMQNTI
Records with an inconclusive call do not appear. Active and inactive are the calls of the source. Rule for the calls: active = hit-call score of the fitted dose curve at least 0.9, where 1 is the maximum; inconclusive = response in the unintended direction; inactive = score below 0.9.
Hi there, use one of these labels in your reply, thanks! active, inactive

Illustrative cases are given below, each with its answer.
{"compound": "CCCCCOC(=O)c1ccccc1C(=O)OCCCCC", "test system": "chicken Estrogen Receptor (ERa), ESR1 (gene 396099) (UniProt P06212)", "label": "inactive"}
{"compound": "CCCCC(CC)COC(=O)c1ccc(C(=O)OCC(CC)CCCC)c(C(=O)OCC(CC)CCCC)c1 (stereo unspecified)", "test system": "chicken Estrogen Receptor (ERa), ESR1 (gene 396099) (UniProt P06212)", "label": "inactive"}
{"compound": "C[C@]12C=CC3=C4CCC(=O)C=C4CC[C@H]3[C@@H]1CC[C@@H]2O", "test system": "chicken Estrogen Receptor (ERa), ESR1 (gene 396099) (UniProt P06212)", "label": "inactive"}

Request: What was the test verdict on O=[N+]([O-])c1ccc(Oc2ccc(Cl)cc2Cl)cc1 ?
Result: inactive

Request: What was the test verdict on Clc1ccc(C(c2ccc(Cl)cc2)C(Cl)Cl)cc1 ?
Result: active

Request: What was the test verdict on CC(C)(C)C(O)(CCc1ccc(Cl)cc1)Cn1cncn1 (stereo unspecified) ?
Result: inactive

* * *

assay: CCTE_Harrill_HTTr_CellCount_MCF7: CCTE's Cell Proliferation Assessment for the High-Throughput Transcriptomics (HTTr) Platform, Harrill Lab (AID 2284012);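 note: count of Hoechst-stained nuclei per well by high-content imaging in MCF-7 cells; cells exposed to compound for six hours; intended direction is loss of nuclei count meaning fewer cells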
Records with an inconclusive call do not appear. Calls of active or inactive are those of the source. Rule for the calls: active = hit-call score of the fitted dose curve at least 0.9, where 1 is the maximum; inconclusive = response in the unintended direction; inactive = score below 0.9.
assay endpoint: outcome

{"compound": "Clc1ccc(C(c2ccc(Cl)cc2)C(Cl)(Cl)Cl)cc1", "value": "inactive"}
{"compound": "ClC1=C(Cl)C2(Cl)C3C(Cl)C=CC3C1(Cl)C2(Cl)Cl (stereo not drawn)", "value": "inactive"}
{"compound": "COC(=O)Nc1nc2ccccc2[nH]1", "value": "inactive"}

* * *

read-out: Cyclin D2 (CCND2), CCND2 (gene 894); assay: LTEA_HepaRG_CCND2: Life Technologies and Expression Analysis (LTEA) Assay for Cyclin D2 (CCND2) using HepaRG (AID 2283449); conditions: mRNA level, 48 h; actives raise or lower the signal;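 note: CCND2 transcript measured by TaqMan qRT-PCR and normalised to three housekeeping genes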
The source made the active and inactive calls. Rule for the calls: active = hit-call score of the fitted dose curve at least 0.9, where 1 is the maximum; inactive = score below 0.9.
assay endpoint: outcome

{"compound": "CCOc1cccc(C2(N3CCN(c4ccccc4)CC3)CCC(C)CC2)c1 (stereo not drawn)", "outcome": "inactive"}
{"compound": "O=C(N[C@H](c1ccccc1)[C@@H]1CN2CCC1CC2)c1c(Cl)ccc(C(F)(F)F)c1Cl", "outcome": "inactive"}
{"compound": "CCCCCOC(=O)c1ccccc1C(=O)OCCCCC", "outcome": "inactive"}
{"compound": "CCCSC(=O)N(CCC)CCC", "outcome": "inactive"}
{"compound": "c1ccc(N=Nc2ccccc2)cc1", "outcome": "inactive"}

Request: Fill in outcome for record COC(=O)c1ccccc1N
Result: inactive

Request: Fill in outcome for record Oc1ccccc1Cl
Result: inactive

Request: Fill in outcome for record C[N+](C)(C)CC1CO1 (stereo not drawn)
Result: inactive

* * *

assay: BSK_LPS_PGE2: BioMAP Diversity Plus: LPS Assay for Prostaglandin E2 (PGE2) Biomarker Activity (AID 2283082); conditions: primary human HUVEC with PBMC; actives raise or lower the signal
Activity calls are given as the source filed them. The calls were made as follows: active = hit-call score of the fitted dose curve at least 0.9, where 1 is the maximum; inactive = score below 0.9.
Hi there, use one of these labels in your reply, thanks! yes (active), no (inactive)

{"compound": "Cc1ccc(N)cc1", "label": "no"}
{"compound": "CC(C)(C)OOC(C)(C)CCC(C)(C)OOC(C)(C)C", "label": "no"}

Request: What was the test verdict on O=[N+]([O-])C(Br)(CO)CO ?
Result: no

Request: What was the test verdict on O=[N+]([O-])c1ccc(Oc2ccc(Cl)cc2Cl)cc1 ?
Result: no

Request: What was the test verdict on Cn1cc(-c2ccccc2)c(=O)c(-c2cccc(C(F)(F)F)c2)c1 ?
Result: yes

Request: What was the test verdict on C=CCc1ccc2c(c1)OCO2 ?
Result: no

Request: What was the test verdict on CCOc1cccc(C2(N3CCN(c4ccccc4)CC3)CCC(C)CC2)c1 (stereo unspecified) ?
Result: no

Request: What was the test verdict on c1ccc(N=Nc2ccccc2)cc1 ?
Result: no

Request: What was the test verdict on CCC(C)c1ccc(O)cc1 (stereo unspecified) ?
Result: yes

Request: What was the test verdict on Clc1ccc(C(c2ccc(Cl)cc2)C(Cl)(Cl)Cl)cc1 ?
Result: no

* * *

read-out: Fatty Acid-Binding Protein 1 (FABP1), FABP1 (gene 2168); assay: LTEA_HepaRG_FABP1: Life Technologies and Expression Analysis (LTEA) Assay for Fatty Acid-Binding Protein 1 (FABP1) using HepaRG (AID 2283494); details: mRNA level, 48 h; actives raise or lower the signal
The source made the active and inactive calls. Rule for the calls: active = hit-call score of the fitted dose curve at least 0.9, where 1 is the maximum; inactive = score below 0.9.
Hi there, use one of these labels in your reply, thanks! active, inactive

Illustrative cases are given below, each with its answer.
{"compound": "CCOC(=O)[C@]1(c2ccccc2)Oc2ccccc2[C@@H]1N", "label": "active"}
{"compound": "OCCCl", "label": "inactive"}
{"compound": "COC(=O)c1ccccc1N", "label": "inactive"}

Request: What was the test verdict on Nc1cc(Cl)cc(C(=O)O)c1Cl ?
Result: inactive

Request: What was the test verdict on CCN(CC)N=O ?
Result: inactive

Request: What was the test verdict on CCOc1cccc(C2(N3CCN(c4ccccc4)CC3)CCC(C)CC2)c1 (centres undefined) ?
Result: inactive

Request: What was the test verdict on CN(C)c1ccc(C(=O)c2ccc(N(C)C)cc2)cc1 ?
Result: active

Request: What was the test verdict on CCCCCCCCOC(=O)c1ccc(C(=O)OCCCCCCCC)c(C(=O)OCCCCCCCC)c1 ?
Result: inactive

Request: What was the test verdict on Cc1ccc(N=C=O)cc1N=C=O ?
Result: active

Request: What was the test verdict on ClC1=C(Cl)C2(Cl)C3C(Cl)C=CC3C1(Cl)C2(Cl)Cl (centres undefined) ?
Result: active

Request: What was the test verdict on [O-][Cl+]O ?
Result: inactive

Request: What was the test verdict on O=[N+]([O-])C(Br)(CO)CO ?
Result: inactive

Request: What was the test verdict on Clc1ccccc1Cl ?
Result: inactive

Request: What was the test verdict on CC(C)(OOC(C)(C)c1ccccc1)c1ccccc1 ?
Result: inactive

Request: What was the test verdict on CS(=O)(=O)NC(=O)c1cc(Oc2ccc(C(F)(F)F)cc2Cl)ccc1[N+](=O)[O-] ?
Result: inactive

Request: What was the test verdict on Cc1ccc(N)c(N)c1 ?
Result: active

Request: What was the test verdict on Nc1ccc(Oc2ccc(N)cc2)cc1 ?
Result: active

Request: What was the test verdict on ClC1=C(Cl)[C@]2(Cl)[C@H]3[C@H]([C@@H]4C=C[C@H]3C4)[C@@]1(Cl)C2(Cl)Cl ?
Result: active

Request: What was the test verdict on CC(C)(C)C(O)(CCc1ccc(Cl)cc1)Cn1cncn1 (centres undefined) ?
Result: active

* * *

read-out: ATP-citrate lyase (ACLY), ACLY (gene 47); experiment: LTEA_HepaRG_ACLY: Life Technologies and Expression Analysis (LTEA) Assay for ATP-citrate lyase (ACLY) using HepaRG (AID 2283466); settings: mRNA level, 48 h; actives raise or lower the signal
Calls of active or inactive are those of the source. How the source made its calls: active means hit-call score of the fitted dose curve at least 0.9, where 1 is the maximum; inactive means score below 0.9.
assay endpoint: AC50

Worked cases, AC50 given:
{"compound": "CCCCCCCCCCCCCN1CC(C)OC(C)C1 (stereo unspecified)", "AC50": "inactive"}
{"compound": "Brc1ccc(Oc2ccccc2)cc1", "AC50": "inactive"}
{"compound": "C[C@]12C=CC3=C4CCC(=O)C=C4CC[C@H]3[C@@H]1CC[C@@H]2O", "AC50": "inactive"}
{"compound": "O=C(N[C@H](c1ccccc1)[C@@H]1CN2CCC1CC2)c1c(Cl)ccc(C(F)(F)F)c1Cl", "AC50": "78.7 µM (active)"}

Request: Fill in AC50 for record Clc1ccc(C(c2ccc(Cl)cc2)C(Cl)(Cl)Cl)cc1
Result: inactive

Request: Fill in AC50 for record [Cl-].[Cl-].[Hg+2]
Result: inactive

* * *

experiment: ATG_CMV_CIS: Attagene CIS-FACTORIAL HepG2 Assay for human CMV (Internal Marker) (AID 2282928); conditions: HepG2 CMV promoter reporter, transcription factor profiling; actives raise or lower the signal;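 note: endpoint acts as a background internal control marker rather than a target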
The source made the active and inactive calls. How the source made its calls: active means hit-call score of the fitted dose curve at least 0.9, where 1 is the maximum; inactive means score below 0.9.
Hi there, use one of these labels in your reply, thanks! true (1) for active, false (0) for inactive

{"molecule": "c1ccc(N=Nc2ccccc2)cc1", "label": "false (0)"}

Request: What was the test verdict on CC(C)(C)C(O)(CCc1ccc(Cl)cc1)Cn1cncn1 (configuration not stated) ?
Result: true (1)

Request: What was the test verdict on CCCCC(CC)COC(=O)c1ccc(C(=O)OCC(CC)CCCC)c(C(=O)OCC(CC)CCCC)c1 (configuration not stated) ?
Result: false (0)

Request: What was the test verdict on OCCCl ?
Result: false (0)

Request: What was the test verdict on CCCCOC(=O)c1ccccc1C(=O)OCc1ccccc1 ?
Result: false (0)

Request: What was the test verdict on CCOc1cccc(C2(N3CCN(c4ccccc4)CC3)CCC(C)CC2)c1 (configuration not stated) ?
Result: false (0)

Request: What was the test verdict on CC(C)N(Cc1ccccc1)C(=O)C(C)(C)C ?
Result: false (0)
